Reference source for all entries: paper PMC10786891

Entries annotated with measured pKd
system: T1, EsCas13d, nuclease-dead (Eubacterium siraeum, UniProt B0MS50, R295A;H300A;R849A;H854A)
T1 sequence: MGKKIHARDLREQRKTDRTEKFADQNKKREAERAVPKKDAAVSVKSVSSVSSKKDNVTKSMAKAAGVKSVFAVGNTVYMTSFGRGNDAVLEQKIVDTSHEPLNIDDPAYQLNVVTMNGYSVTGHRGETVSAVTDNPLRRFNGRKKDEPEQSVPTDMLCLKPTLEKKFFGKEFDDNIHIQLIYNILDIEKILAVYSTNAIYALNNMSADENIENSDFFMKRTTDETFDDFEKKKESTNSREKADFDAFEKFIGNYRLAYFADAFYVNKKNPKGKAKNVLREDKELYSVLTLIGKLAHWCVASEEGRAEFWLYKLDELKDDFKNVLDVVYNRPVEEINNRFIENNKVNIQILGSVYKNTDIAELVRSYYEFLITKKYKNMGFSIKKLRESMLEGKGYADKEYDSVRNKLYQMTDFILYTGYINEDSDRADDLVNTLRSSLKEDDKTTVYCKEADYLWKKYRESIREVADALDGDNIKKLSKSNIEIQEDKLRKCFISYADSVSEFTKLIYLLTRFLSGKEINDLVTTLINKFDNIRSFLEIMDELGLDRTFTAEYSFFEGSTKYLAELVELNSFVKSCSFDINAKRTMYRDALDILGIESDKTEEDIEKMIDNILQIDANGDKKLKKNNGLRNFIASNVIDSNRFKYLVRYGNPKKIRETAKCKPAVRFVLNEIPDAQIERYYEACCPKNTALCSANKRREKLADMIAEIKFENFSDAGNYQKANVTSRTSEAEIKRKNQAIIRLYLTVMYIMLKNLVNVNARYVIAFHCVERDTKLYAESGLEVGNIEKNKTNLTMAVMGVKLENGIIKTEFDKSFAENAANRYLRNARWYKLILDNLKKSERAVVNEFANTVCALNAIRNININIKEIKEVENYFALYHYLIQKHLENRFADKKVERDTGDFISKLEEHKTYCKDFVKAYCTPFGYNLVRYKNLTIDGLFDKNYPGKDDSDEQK
experimental.protocol: crRNA (strand 1, pre-loaded); Mg2+; 40 mM Tris-HCl pH 7.5, 150 mM NaCl, 6 mM MgCl2, 1 mM DTT, 0.1% Tween-20, 0.2 mg/ml BSA; 25 C; 10 min per concentration, then washed
assay.context: tags: His6-TwinStrep-SUMO cleaved; N-terminal SNAP kept (SNAP-Surface 488); label: 3' end held by stalled T7 RNA polymerase
pKd: −log10 of the molar value.
outcome.measure: pKd

[
  {
    "binder": "target 1 insC 3' of 17,insG 3' of 7 (mixed) RNA 1: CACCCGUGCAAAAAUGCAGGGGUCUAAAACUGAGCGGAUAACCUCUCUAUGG RNA 2: GGGAAUGGAUCCACAUCUACGAAUUCGUACCAUAGCAGAGGUUAUCGCGCUCACCGAGAUCGGAAGAGCACACGU",
    "reported.result": 7.38
  },
  {
    "binder": "target 1 complement block 1-9 (mixed) RNA 1: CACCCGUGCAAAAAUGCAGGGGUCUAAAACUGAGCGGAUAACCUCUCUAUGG RNA 2: GGGAAUGGAUCCACAUCUACGAAUUCGUACCAUAGAGAGGUUUAGGCGAGUCCGAGAUCGGAAGAGCACACGU",
    "reported.result": 8.02
  },
  {
    "binder": "target 1 insC 3' of 20,insA 3' of 8 (mixed) RNA 1: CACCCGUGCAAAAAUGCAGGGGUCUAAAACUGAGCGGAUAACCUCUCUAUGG RNA 2: GGGAAUGGAUCCACAUCUACGAAUUCGUACCACUAGAGAGGUUAUACCGCUCACCGAGAUCGGAAGAGCACACGU",
    "reported.result": 8.02
  },
  {
    "binder": "target 2 MT 5'PFS UAG 3'PFS UCA (mixed) RNA 1: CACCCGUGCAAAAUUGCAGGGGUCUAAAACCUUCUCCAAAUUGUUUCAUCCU RNA 2: GGGAAUGGAUCCACAUCUACGAAUUCUAGAGGAUGAAACAAUUUGGAGAAGUCAAGAUCGGAAGAGCACACGU",
    "reported.result": 8.32
  },
  {
    "binder": "target 1 insU 3' of 9,insA 3' of 4 (mixed) RNA 1: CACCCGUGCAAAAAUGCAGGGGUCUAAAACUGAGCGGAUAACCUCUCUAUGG RNA 2: GGGAAUGGAUCCACAUCUACGAAUUCGUACCAUAGAGAGGUUAUUCCGCAUCACCGAGAUCGGAAGAGCACACGU",
    "reported.result": 8.10
  },
  {
    "binder": "target 1 insC 3' of 22,insA 3' of 22 (mixed) RNA 1: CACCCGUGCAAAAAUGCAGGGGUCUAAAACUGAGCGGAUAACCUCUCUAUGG RNA 2: GGGAAUGGAUCCACAUCUACGAAUUCGUACCACAUAGAGAGGUUAUCCGCUCACCGAGAUCGGAAGAGCACACGU",
    "reported.result": 8.00
  },
  {
    "binder": "target 1 U3G,A9U (mixed) RNA 1: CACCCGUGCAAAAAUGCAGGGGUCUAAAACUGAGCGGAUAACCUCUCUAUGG RNA 2: GGGAAUGGAUCCACAUCUACGAAUUCGUACCAUAGAGAGGUUUUCCGCGCACCGAGAUCGGAAGAGCACACGU",
    "reported.result": 8.12
  },
  {
    "binder": "target 1 C2A,C7U (mixed) RNA 1: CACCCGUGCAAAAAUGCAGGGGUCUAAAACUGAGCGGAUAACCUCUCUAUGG RNA 2: GGGAAUGGAUCCACAUCUACGAAUUCGUACCAUAGAGAGGUUAUUCGCUAACCGAGAUCGGAAGAGCACACGU",
    "reported.result": 8.28
  },
  {
    "binder": "target 2 MT 5'PFS UAU 3'PFS GGC (mixed) RNA 1: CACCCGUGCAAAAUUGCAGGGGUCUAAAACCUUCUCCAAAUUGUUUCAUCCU RNA 2: GGGAAUGGAUCCACAUCUACGAAUUCUAUAGGAUGAAACAAUUUGGAGAAGGGCAGAUCGGAAGAGCACACGU",
    "reported.result": 7.36
  },
  {
    "binder": "target 1 A9U,A14G (mixed) RNA 1: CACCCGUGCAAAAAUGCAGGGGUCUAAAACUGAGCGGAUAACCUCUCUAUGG RNA 2: GGGAAUGGAUCCACAUCUACGAAUUCGUACCAUAGAGGGGUUUUCCGCUCACCGAGAUCGGAAGAGCACACGU",
    "reported.result": 7.75
  },
  {
    "binder": "target 2 MT 5'PFS UUA 3'PFS ACG (mixed) RNA 1: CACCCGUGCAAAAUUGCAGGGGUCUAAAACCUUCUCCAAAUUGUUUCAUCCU RNA 2: GGGAAUGGAUCCACAUCUACGAAUUCUUAAGGAUGAAACAAUUUGGAGAAGACGAGAUCGGAAGAGCACACGU",
    "reported.result": 7.09
  },
  {
    "binder": "target 2 MT 5'PFS UUG 3'PFS UAA (mixed) RNA 1: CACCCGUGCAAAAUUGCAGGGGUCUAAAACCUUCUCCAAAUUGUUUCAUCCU RNA 2: GGGAAUGGAUCCACAUCUACGAAUUCUUGAGGAUGAAACAAUUUGGAGAAGUAAAGAUCGGAAGAGCACACGU",
    "reported.result": 7.89
  },
  {
    "binder": "target 1 insG 3' of 10,insG 3' of 8 (mixed) RNA 1: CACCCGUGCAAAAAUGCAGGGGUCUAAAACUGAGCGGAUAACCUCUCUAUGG RNA 2: GGGAAUGGAUCCACAUCUACGAAUUCGUACCAUAGAGAGGUUGAUGCCGCUCACCGAGAUCGGAAGAGCACACGU",
    "reported.result": 7.66
  },
  {
    "binder": "target 1 MT 5'PFS GUG 3'PFS GCG (mixed) RNA 1: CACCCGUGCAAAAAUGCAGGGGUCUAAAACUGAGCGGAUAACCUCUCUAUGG RNA 2: GGGAAUGGAUCCACAUCUACGAAUUCGUGCCAUAGAGAGGUUAUCCGCUCAGCGAGAUCGGAAGAGCACACGU",
    "reported.result": 7.84
  }
]
